System: biomarker (antibody) in serum samples from patients with symptoms of tuberculosis
Assay type: binding, human
Condition Set: serum sample 60 TB−

| Molecule | ELISA absorbance at 492 nm |
| --- | --- |
| CCCCCCCCCCCCCCCCCCCCCCCC[C@@H](C(=O)OC[C@H]1O[C@H](OC)[C@@H](O)[C@@H]1O)[C@H](O)CCCCCCCCCCC[C@H]1CC1CCCCCCCCCCCCCC[C@H]1C[C@H]1CCCCCCCCCCCCCCCCCCCC (some centres unmarked) [Antigen F] | 0.44 |
| CCCCCCCCCCCCCCCCCCCCCCCC[C@@H](C(=O)OC[C@H]1O[C@H](OC)[C@@H](O)[C@@H]1O)[C@H](O)CCCCCCCCCCCCCCCCC[C@@H]1C[C@@H]1CCCCCCCCCCCCCCCC[C@@H](OC)[C@@H](C)CCCCCCCCCCCCCCCCCC [Antigen B] | 0.36 |
| CCCCCCCCCCCCCCCCCCCCCC[C@@H](C(=O)OC[C@H]1O[C@H](OC)[C@@H](O)[C@@H]1O)[C@H](O)CCCCCCCCCCCCCCCCC[C@H]1C[C@H]1CCCCCCCCCCCCCCCC[C@@H](OC)[C@@H](C)CCCCCCCCCCCCCCCCCC [Antigen E] | 0.29 |

* * *

ELISA absorbance at 492 nm values by entry
Tested on: biomarker (antibody) in serum samples from patients with symptoms of tuberculosis
Assay type: binding, human
Condition Set: serum sample 21 TB−

| Compound | System Tested | ELISA absorbance at 492 nm |
| --- | --- | --- |
| CCCCCCCCCCCCCCCCCCCCCCCC[C@@H](C(=O)OC[C@H]1O[C@H](OC)[C@@H](O)[C@@H]1O)[C@H](O)CCCCCCCCCCCCCCCCC[C@@H]1C[C@@H]1CCCCCCCCCCCCCCCC[C@@H](OC)[C@@H](C)CCCCCCCCCCCCCCCCCC [Antigen B] | biomarker (antibody) in serum samples from patients with symptoms of tuberculosis | 0.42 |
| CCCCCCCCCCCCCCCCCCCCCCCC[C@@H](C(=O)OC[C@H]1O[C@H](OC)[C@@H](O)[C@@H]1O)[C@H](O)CCCCCCCCCCC[C@H]1CC1CCCCCCCCCCCCCC[C@H]1C[C@H]1CCCCCCCCCCCCCCCCCCCC (some centres unmarked) [Antigen F] | biomarker (antibody) in serum samples from patients with symptoms of tuberculosis | 0.61 |
| CCCCCCCCCCCCCCCCCCCCCC[C@@H](C(=O)OC[C@H]1O[C@H](OC)[C@@H](O)[C@@H]1O)[C@H](O)CCCCCCCCCCCCCCCCC[C@H]1C[C@H]1CCCCCCCCCCCCCCCC[C@@H](OC)[C@@H](C)CCCCCCCCCCCCCCCCCC [Antigen E] | biomarker (antibody) in serum samples from patients with symptoms of tuberculosis | 0.35 |

* * *

Here, each record is paired with measured ELISA absorbance at 492 nm data.
Tested on: biomarker (antibody) in serum samples from patients with symptoms of tuberculosis
Assay type: binding, human
Condition Set: serum sample 13 TB−
Marks after values point to notes of the source that are not given here.
Property Measured: ELISA absorbance at 492 nm

| Compound | Result |
| --- | --- |
| CCCCCCCCCCCCCCCCCCCCCC[C@@H](C(=O)OC[C@H]1O[C@H](OC)[C@@H](O)[C@@H]1O)[C@H](O)CCCCCCCCCCCCCCCCC[C@H]1C[C@H]1CCCCCCCCCCCCCCCC[C@@H](OC)[C@@H](C)CCCCCCCCCCCCCCCCCC [Antigen E] | 0.34 |
| CCCCCCCCCCCCCCCCCCCCCCCC[C@@H](C(=O)OC[C@H]1O[C@H](OC)[C@@H](O)[C@@H]1O)[C@H](O)CCCCCCCCCCC[C@H]1CC1CCCCCCCCCCCCCC[C@H]1C[C@H]1CCCCCCCCCCCCCCCCCCCC (some centres unmarked) [Antigen F] | 0.60 |
| CCCCCCCCCCCCCCCCCCCCCC[C@@H](C(=O)OC[C@H]1O[C@H](OC)[C@@H](O)[C@@H]1O)[C@H](O)CCCCCCCCCCCCCCCCC[C@@H]1C[C@@H]1CCCCCCCCCCCCCCCC[C@@H](OC)[C@@H](C)CCCCCCCCCCCCCCCCCC [Antigen A] | 0.22 |
| CCCCCCCCCCCCCCCCCCCCCC[C@@H](C(=O)OC[C@H]1O[C@H](OC)[C@@H](O)[C@@H]1O)[C@H](O)CCCCCCCCCCCCCCC[C@@H]1C[C@@H]1CCCCCCCCCCCCCCCCCCC(=O)C(C)CCCCCCCCCCCCCCCCCC (some centres unmarked) [Antigen C] | 0.24 |
| CCCCCCCCCCCCCCCCCCCCCCCC[C@@H](C(=O)OC[C@H]1O[C@H](OC)[C@@H](O)[C@@H]1O)[C@H](O)CCCCCCCCCCCCCCCCC[C@@H]1C[C@@H]1CCCCCCCCCCCCCCCC[C@@H](OC)[C@@H](C)CCCCCCCCCCCCCCCCCC [Antigen B] | 0.56* |
